- System: HepG2
- assay-text: Antiproliferative activity against human HepG2 cells assessed as growth inhibition at 100 ug/mL incubated for 48 hrs by SRB assay relative to control
- Assay type: functional
- condition-notes: read-out: GI
# inhibition of growth at 100 µg/mL values compiled below
Field: numeric (%). Do not append units.

Some entries whose results are on file:
1) COc1ccc(/C=N/NC(=O)c2nnn(-c3ccc(Br)cc3)c2C)cc1OC ... 59
2) COc1ccc(/C=N/NC(=O)c2nnn(-c3ccc(F)cc3)c2C)cc1OC ... 81
3) COc1cccc2c1C(=O)c1c(O)c3c(c(O)c1C2=O)C[C@@](O)(C(=O)CO)C[C@@H]3O[C@H]1C[C@H](N)[C@H](O)[C@H](C)O1 [DOXORUBICIN] ... 72

Ask: Which value of inhibition of growth at 100 µg/mL has been reported for COc1cc(/C=N/NC(=O)c2nnn(-c3ccc(Br)cc3)c2C)cc(OC)c1OC in the records?
Reply: 76

Ask: Which value of inhibition of growth at 100 µg/mL has been reported for COc1cc(/C=N/NC(=O)c2nnn(-c3ccc([N+](=O)[O-])cc3)c2C)cc(OC)c1OC in the records?
Reply: 44

* * *

- Tested on: HepG2
- assay-text: Antiproliferative activity against human HepG2 cells assessed as growth inhibition at 100 ug/mL incubated for 48 hrs by SRB assay relative to control
- Type: functional
- condition-notes: read-out: GI
# inhibition of growth at 100 µg/mL values compiled below
Field: numeric (%). Do not append units.

Some entries whose results are on file:
1) COc1cccc(/C=N/NC(=O)c2nnn(-c3ccc([N+](=O)[O-])cc3)c2C)c1OC ... 56
2) Cc1c(C(=O)N/N=C/c2ccccc2)nnn1-c1ccc(Br)cc1 ... 72
3) Cc1c(C(=O)N/N=C/c2ccccc2)nnn1-c1ccc(F)cc1 ... 54
4) COc1cccc(/C=N/NC(=O)c2nnn(-c3ccc(F)cc3)c2C)c1OC ... 49

Now, please, on to the next compound.
Ask: Which value of inhibition of growth at 100 µg/mL has been reported for COc1cccc(/C=N/NC(=O)c2nnn(-c3ccc(Cl)cc3)c2C)c1OC in the records?
Reply: 80

* * *

# inhibition of growth at 100 µg/mL values compiled below
- System: HCT-116
- assay-text: Antiproliferative activity against human HCT-116 cells assessed as growth inhibition at 100 ug/mL incubated for 48 hrs by SRB assay relative to control
- Format: functional
- condition-notes: read-out: GI
Field: numeric (%). Do not append units.

Some entries whose results are on file:
1) COc1cccc(/C=N/NC(=O)c2nnn(-c3ccc(F)cc3)c2C)c1OC ... 64
2) COc1cc(/C=N/NC(=O)c2nnn(-c3ccc(Br)cc3)c2C)cc(OC)c1OC ... 82
3) COc1ccc(/C=N/NC(=O)c2nnn(-c3ccc(Br)cc3)c2C)cc1OC ... 63

Now, please, on to the next molecule.
Ask: Which value of inhibition of growth at 100 µg/mL has been reported for COc1cc(/C=N/NC(=O)c2nnn(-c3ccc(Cl)cc3)c2C)cc(OC)c1OC in the records?
Reply: 64

* * *

# inhibition of growth at 100 µg/mL values compiled below
- Test system: HCT-116
- assay-text: Antiproliferative activity against human HCT-116 cells assessed as growth inhibition at 100 ug/mL incubated for 48 hrs by SRB assay relative to control
- Assay type: functional
- condition-notes: read-out: GI
Field: numeric (%). Do not append units.

Some entries whose results are on file:
1. COc1cc(/C=N/NC(=O)c2nnn(-c3ccc(F)cc3)c2C)cc(OC)c1OC ... 73
2. COc1cccc2c1C(=O)c1c(O)c3c(c(O)c1C2=O)C[C@@](O)(C(=O)CO)C[C@@H]3O[C@H]1C[C@H](N)[C@H](O)[C@H](C)O1 [DOXORUBICIN] ... 76
3. COc1cc(/C=N/NC(=O)c2nnn(-c3ccc([N+](=O)[O-])cc3)c2C)cc(OC)c1OC ... 35
4. Cc1c(C(=O)N/N=C/c2ccccc2)nnn1-c1ccc(Br)cc1 ... 87
5. COc1cccc(/C=N/NC(=O)c2nnn(-c3ccc([N+](=O)[O-])cc3)c2C)c1OC ... 56
6. Cc1c(C(=O)N/N=C/c2ccccc2)nnn1-c1ccc(F)cc1 ... 74
7. COc1cccc(/C=N/NC(=O)c2nnn(-c3ccc(Cl)cc3)c2C)c1OC ... 82
8. COc1cccc(/C=N/NC(=O)c2nnn(-c3ccc(Br)cc3)c2C)c1OC ... 69

Ask: Which value of inhibition of growth at 100 µg/mL has been reported for COc1ccc(/C=N/NC(=O)c2nnn(-c3ccc(F)cc3)c2C)cc1OC in the records?
Reply: 81

Data origin, for the record: ChEMBL document CHEMBL6182834
